These measurements were taken from patent US20260242405A1.

# System under test: N1-BR18 (IAV neuraminidase) (Influenza A virus, UniProt A0A0X9QTS2)
# Assay comment: Fluorescence-based inhibition assay (substrate Neu5Acα2-3GalβMU, β-galactosidase coupled)
# Format: biochemical, influenza A virus A/Brisbane/02/2018 (H1N1)
# Condition context: read-out: percentage inhibition against N1-BR18, inhibitor 8.0 μM; Example 3, Table 4
Readings of inhibition at 8 µM for the listed molecules
The reply must contain the numeric value and, after it, the unit.

// below: answered molecules
Molecule	System under test	inhibition at 8 µM
CC(=O)N[C@@H]1C(N)C[C@](OC2C(O)[C@H](Oc3ccc([N+](=O)[O-])cc3)OC(CO)[C@@H]2O)(C(=O)O)OC1[C@H](O)[C@H](O)CO (stereo partly drawn)	N1-BR18 (IAV neuraminidase) (Influenza A virus, UniProt A0A0X9QTS2)	47.2%
CC(=O)N[C@@H]1C(NC(=N)N)C[C@](OC2C(O)[C@H](Oc3ccc([N+](=O)[O-])cc3)OC(CO)[C@@H]2O)(C(=O)O)OC1[C@H](O)[C@H](O)CO (stereo partly drawn)	N1-BR18 (IAV neuraminidase) (Influenza A virus, UniProt A0A0X9QTS2)	97.9%
CC(=O)N[C@@H]1C(N=[N+]=[N-])C[C@](OCC2O[C@@H](Oc3ccc([N+](=O)[O-])cc3)C(O)C(O)[C@H]2O)(C(=O)O)OC1[C@H](O)[C@H](O)CO (stereo partly drawn)	N1-BR18 (IAV neuraminidase) (Influenza A virus, UniProt A0A0X9QTS2)	0.2%
CC(=O)N[C@@H]1C(N)C[C@](OCC2O[C@@H](Oc3ccc([N+](=O)[O-])cc3)C(O)C(O)[C@H]2O)(C(=O)O)OC1[C@H](O)[C@H](O)CO (stereo partly drawn)	N1-BR18 (IAV neuraminidase) (Influenza A virus, UniProt A0A0X9QTS2)	0.7%
CC(=O)NC1C[C@](OC2C(O)[C@H](Oc3ccc([N+](=O)[O-])cc3)OC(CO)[C@@H]2O)(C(=O)O)OC([C@H](O)[C@H](O)CO)[C@@H]1NC(C)=O (stereo partly drawn)	N1-BR18 (IAV neuraminidase) (Influenza A virus, UniProt A0A0X9QTS2)	3%

IN: Query inhibition at 8 µM for CC(=O)N[C@H]1[C@H]([C@H](O)[C@H](O)CO)O[C@@](O[C@H]2[C@@H](O)[C@@H](CO)O[C@@H](Oc3ccc([N+](=O)[O-])cc3)[C@@H]2O)(C(=O)O)C[C@@H]1OC(C)=O [Neu4,5Ac2α2-3GalβpNP, Neu4,5Acα2-3GalβpNP, reference compound]
OUT: 2%
